- Test system: HL-1
- EXPERIMENT NOTES: relative cell viability (CellTiter-Glo) vs DMSO control (% of DMSO control); higher = more viable cells
- CONDITION: oxygen condition: hypoxia 48 h (1% O2) + reoxygenation 24 h; 40 nM
Counter-ions that a name gives are not always drawn.
PARAMETER: relative cell viability
API note: the answer field is a bare number with no unit suffix.

These recorded examples may help you get a feel for the data.
Task: Report relative cell viability from HL-1 testing of Oc1cc(O)c(Cl)cn1
Result: 99.3

Task: Report value only: relative cell viability, HL-1, CS(=O)(=O)Nc1ccc([N+](=O)[O-])cc1Oc1ccccc1 [Nimesulide]
Result: 105

Task: Please indicate recorded relative cell viability of C=CC(=O)N1CCC[C@@H](n2nc(-c3ccc(Oc4ccccc4)cc3)c3c(N)ncnc32)C1 measured with HL-1.
Result: 98.9

Task: Given O=C1[C@@H]2[C@H]3CC[C@H](C3)[C@@H]2C(=O)N1C[C@@H]1CCCC[C@H]1CN1CCN(c2nsc3ccccc23)CC1 [Lurasidone HCl] , report its relative cell viability on HL-1.
Result: 96.8

Task: Retrieve relative cell viability on HL-1; query CCC(C)n1ncn(-c2ccc(N3CCN(c4ccc(OCC5COC(Cn6cncn6)(c6ccc(Cl)cc6Cl)O5)cc4)CC3)cc2)c1=O (stereo unspecified)
Result: 99.1

Now for another entry.
Task: # lookup: HL-1 relative cell viability, key = C[C@@H]1CC(=O)NN=C1c1ccc(NN=C(C#N)C#N)cc1
Result: 101

---

Consider the following molecules and their measured relative cell viability readings.
- System: HL-1
- EXPERIMENT NOTES: relative cell viability (CellTiter-Glo) vs DMSO control (% of DMSO control); higher = more viable cells
- CONDITION: oxygen condition: normoxia 72 h; 1000 nM
Structures can show the parent of a compound that is named as a salt.
Answer as a number with no unit attached.

Task: Provide relative cell viability, system HL-1, entry CC[C@]1(O)C[C@H]2CN(CCc3c([nH]c4ccccc34)[C@@](C(=O)OC)(c3cc4c(cc3OC)N(C=O)[C@H]3[C@@](O)(C(=O)OC)[C@H](OC(C)=O)[C@]5(CC)C=CCN6CC[C@]43[C@@H]65)C2)C1
Result: 32.3

Task: State recorded relative cell viability with HL-1, entry CC(=O)Oc1ccccc1C(=O)O , no comment.
Result: 93.6

Task: With HL-1 as the test system, provide measured relative cell viability for this molecule: CCOc1cc(N)c(Cl)cc1C(=O)NCC1CN(Cc2ccc(F)cc2)CCO1 (stereo not given) [Mosapride citrate]
Result: 103

Task: Please respond with reported relative cell viability (system HL-1) for N[C@H](Cc1ccccc1)C(=O)O .
Result: 108

In the following, a different molecule is considered.
Task: Report value: relative cell viability, system: HL-1, molecule: Cc1ccc(C(=O)c2cc(O)c(O)c([N+](=O)[O-])c2)cc1
Result: 103

---

- Tested on: HL-1
- EXPERIMENT NOTES: relative cell viability (CellTiter-Glo) vs DMSO control (% of DMSO control); higher = more viable cells
- CONDITION: oxygen condition: hypoxia 48 h (1% O2) + reoxygenation 24 h; 40 nM
Where a name gives a salt, the structure may show the parent alone.
PARAMETER: relative cell viability
Form rule: numeric answer, no unit written next to it.

Example compounds with recorded relative cell viability:
Task: Give the value of relative cell viability reported for the following: Nc1cccc2c1C(=O)N(C1CCC(=O)NC1=O)C2=O (centres undefined) [Pomalidomide]
Result: 100

Task: Determine its reported relative cell viability: O=C1O[C@H]([C@@H](O)CO)C([O-])=C1O.[Na+] [Sodium ascorbate]
Result: 99.7

Others:
Task: Query relative cell viability for CC(C)(CO)[C@@H](O)C(=O)NCCC(=O)O [Pantothenic acid]
Result: 100

Task: Please supply the value of reported relative cell viability for the item CCOC(=O)c1ccc(OC(=O)CCCCCNC(=N)N)cc1 [Gabexate mesylate]
Result: 107

Task: Consider the compound CO[C@@H]1[C@@H](OC(N)=O)[C@@H](O)[C@H](Oc2ccc3c(O)c(NC(=O)c4ccc(O)c(CC=C(C)C)c4)c(=O)oc3c2C)OC1(C)C [Novobiocin sodium] . State its measured relative cell viability.
Result: 100

Task: Please look at this compound and report its relative cell viability: COc1cc2nc(N(C)CCCNC(=O)C3CCCO3)nc(N)c2cc1OC (centres undefined) [Alfuzosin hydrochloride]
Result: 103

Task: Please look at this compound and report its relative cell viability: CCCCCCCCOc1ccccc1C(=O)Nc1ccc(C(=O)OCC[N+](C)(CC)CC)cc1 [Otilonium Bromide]
Result: 101

Task: Using the record for CC[C@@H]1C(=O)OC[C@@H]1Cc1cncn1C [Pilocarpine HCl] , state its measured relative cell viability.
Result: 104

Task: Determine its reported relative cell viability: O=C(O)C[C@H](O)C[C@H](O)/C=C/c1c(C2CC2)nc2ccccc2c1-c1ccc(F)cc1 [Pitavastatin calcium]
Result: 109

Task: Give relative cell viability for CCN1CCCC1CNC(=O)c1cc(S(=O)(=O)CC)c(N)cc1OC (centres undefined) [Amisulpride]
Result: 103

Task: Return relative cell viability (reported value) for this compound: CCN1CCN(c2cc(-c3ccc(F)cc3)c3c(n2)CCCCCC3)CC1 [Blonanserin]
Result: 101

Task: Report measured relative cell viability; entry is CC(C)NCC(O)COc1ccc(CCOCC2CC2)cc1 (centres undefined) [Betaxolol]
Result: 99.8

Task: Query relative cell viability for CCN(CC)CCNC(C(=O)OCCC(C)C)c1ccccc1 (centres undefined) [Camylofin Chlorhydrate]
Result: 108

Task: Name the recorded relative cell viability of the item C=C1CC[C@H](O)C/C1=C/C=C1\CCC[C@]2(C)[C@@H]([C@H](C)CCCC(C)C)CC[C@@H]12 [Vitamin D3] in your answer.
Result: 104

Task: Using known records, supply relative cell viability for C=C1CC[C@H](O)C/C1=C/C=C1\CCC[C@]2(C)[C@@H]([C@H](C)/C=C/[C@H](C)C(C)C)CC[C@@H]12 [Vitamin D2]
Result: 102

Task: Tell me measured relative cell viability for COCCc1ccc(OCC(O)CNC(C)C)cc1 (centres undefined) [Metoprolol tartrate] please.
Result: 101

Task: Consider the compound Nc1[nH]cnc2ncnc1-2 [Adenine sulfate] and give its recorded relative cell viability.
Result: 101

Task: Return value of relative cell viability for input COc1ccccc1OCC(O)CN1CCN(CC(=O)Nc2c(C)cccc2C)CC1 (centres undefined) [Ranolazine] , no commentary.
Result: 85

Task: Identify measured relative cell viability corresponding to Nc1cccc2c1CN(C1CCC(=O)NC1=O)C2=O (centres undefined) [Lenalidomide]
Result: 108

---

- System: HL-1
- EXPERIMENT NOTES: relative cell viability (CellTiter-Glo) vs DMSO control (% of DMSO control); higher = more viable cells
- CONDITION: oxygen condition: hypoxia 48 h (1% O2) + reoxygenation 24 h; 1000 nM
PARAMETER: relative cell viability
Provide a numeric answer; units are not to be included.

Task: For HL-1, give relative cell viability of the listed compound: Nc1cc(N2CCCCC2)nc(N)[n+]1[O-]
Result: 118

Task: System HL-1. Read-out relative cell viability. Item CCOC(=O)C1=C[C@@H](OC(CC)CC)[C@H](NC(C)=O)[C@@H](N)C1 [Oseltamivir phosphate] . Report value.
Result: 99.5

Task: Give relative cell viability only, for C[C@@H](Oc1cc(-c2cnn(C3CCNCC3)c2)cnc1N)c1c(Cl)ccc(F)c1Cl , using HL-1 data.
Result: 99.2

Next:
Task: Provide measured relative cell viability on HL-1 for Cc1nc2n(c(=O)c1CCN1CCC(c3noc4cc(F)ccc34)CC1)CCCC2 please.
Result: 106

Task: Give HL-1 relative cell viability for the following compound: C[C@@H]1CC(=O)NN=C1c1ccc(NN=C(C#N)C#N)cc1
Result: 102

Task: // output relative cell viability; input C#Cc1cccc(Nc2ncnc3cc(OCCOC)c(OCCO)cc23)c1 ; system HL-1
Result: 107

Task: Fill in relative cell viability for O=C(O)C1=CO[C@@H](O[C@@H]2O[C@H](CO)[C@@H](O)[C@H](O)[C@H]2O)[C@@H]2C(CO)=CC[C@H]12 tested with HL-1.
Result: 110

Task: Identify measured relative cell viability obtained with HL-1 for Cc1nccn1CC1CCc2c(c3ccccc3n2C)C1=O (stereo not drawn) .
Result: 102

---

- Tested on: HL-1
- EXPERIMENT NOTES: relative cell viability (CellTiter-Glo) vs DMSO control (% of DMSO control); higher = more viable cells
- CONDITION: oxygen condition: hypoxia 48 h (1% O2) + reoxygenation 24 h; 5000 nM
Counter-ions that a name gives are not always drawn.
PARAMETER: relative cell viability
Write the value as a bare number.

Solved entries:
Task: Look up and report measured relative cell viability for this entry: COc1cc([C@@H]2c3cc4c(cc3[C@@H](O[C@@H]3O[C@@H]5CO[C@@H](C)O[C@H]5[C@H](O)[C@H]3O)[C@H]3COC(=O)[C@H]23)OCO4)cc(OC)c1O [Etoposide]
Result: 19.1

Task: Give me measured relative cell viability, please, for this molecule: CN(C)CCc1c[nH]c2ccc(C[C@H]3COC(=O)N3)cc12 [Zolmitriptan]
Result: 110

Task: # return recorded relative cell viability for entry C[C@]12CCC3=C4CCC(=O)C=C4CC[C@H]3[C@@H]1CC[C@@]2(O)CC#N [Dienogest]
Result: 103

Task: Fill in reported relative cell viability for this entry: CC(C)C[C@H](NC(=O)[C@@H](O)[C@H](N)Cc1ccccc1)C(=O)O [Ubenimex]
Result: 103

New cases:
Task: Return relative cell viability (reported value) for this molecule: CN1CCN(C2=Nc3ccccc3Oc3ccc(Cl)cc32)CC1 [Loxapine Succinate]
Result: 116

Task: Answer with the recorded relative cell viability of Cn1c(CNc2ccc(C(=N)N)cc2)nc2cc(C(=O)N(CCC(=O)O)c3ccccn3)ccc21 only.
Result: 108

Task: Identify the reported relative cell viability for the following entry. OC[C@@H](O)[C@@H](O)[C@H](O)[C@@H](O)CO [Sorbitol]
Result: 101

Task: Identify the reported relative cell viability for the following entry. CCOCC(O)COc1ccc(NC(=O)CC[S+](C)C)cc1 (stereo not given) [Suplatast tosylate]
Result: 107

Task: Name the recorded relative cell viability of the molecule listed here: CC(C)(C)c1ccc(C(O)CCCN2CCC(C(O)(c3ccccc3)c3ccccc3)CC2)cc1 (stereo not given) [Terfenadine]
Result: 79.4
